Numbers sourced from ChEMBL document CHEMBL4513216.

# protocol.details: Toxicity liver stage against HepG2, at 10uM
# Type: cell-based
# Set-up: test concentration 10 uM, cell line HepG2-A16-CD81EGFP
# reported.conditions: human, HepG2-A16-CD81EGFP cells; read-out: INHIBITION
attribute.measured: cytotoxicity at 10 µM (%)
API: value field is a number in %; no unit string.

| compound | cytotoxicity at 10 µM (%) |
| --- | --- |
| Cc1c(NCc2ccc(C#N)cc2)cccc1S(=O)(=O)NC1CC1 | 20.9 |
| COc1ccccc1CCN(C)C(C)c1nc(-c2cccnc2)no1 (stereo unspecified) | -2.04 |
| CNc1cc(CCNC(=O)C2CCCC2)nc(-c2ccccn2)n1 | 1.76 |
| CCN1C[C@@H]2[C@@H](OC)CCN(S(=O)(=O)c3cccnc3)[C@@H]2C1 | -77 |
| CS(=O)(=O)NCCN1CCCC1c1noc(C2CC2)n1 (stereo unspecified) | -23.7 |
| CCn1c(C2CCCNC2)nn(Cc2ccc(C(=O)NC)o2)c1=O (stereo unspecified) | 8.25 |
| CC(NC(=O)CCc1nc(C(C)(C)C)no1)c1nnc2n1CCC2 (stereo unspecified) | 12 |
| Cc1c(CC(C#N)C(=O)Nc2cccc(O)c2)cnn1C (stereo unspecified) | 0.781 |
| Cn1cc(C(=O)N2CC[C@@H]3[C@@H]2CCN3Cc2ccncc2)cn1 | -75.3 |
| O[C@@H]1CN(Cc2cc(Cl)cc3cccnc23)C[C@@H]1O | 0.342 |

**Q:** Supply measured cytotoxicity at 10 µM of CN(C)CC1(O)CCCN(C(=O)c2ccccc2-n2cncn2)C1 (stereo unspecified) in your reply.
**A:** 2.11
